- assay-name: AP1 Signaling Pathway (AID 357);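 further: ME-180 reporter cells stimulated with EGF at its EC50 level; on the % scale 0 is the no-effect control and ±100 the full control effect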
- condition-label: ME-180 (cervical carcinoma) AP-1-bla reporter, EGF-induced, beta-lactamase ratio, 5 h; at 17.2 µM (top of the series) unless noted
Records with an inconclusive call do not appear.
Please respond with reported activity change, negative = inhibition for every item in the list.
Give the value, in units of %, as a plain number.

activity change, negative = inhibition reported for this compound COc1ccccc1-n1c(N)c(C(=O)NCC2CCCO2)c2nc3ccccc3nc21 (configuration not stated) : 19.4

activity change, negative = inhibition reported for this compound "CCCCOc1ccccc1C(=O)NCCCCCC(=O)O" : 10.2

activity change, negative = inhibition reported for this compound "COc1cc(S(=O)(=O)N2CCN(C)CC2)c(OC)cc1Br" : 9.1

activity change, negative = inhibition reported for this compound "CCOC(=O)CSc1nc(N(C)C)nc(N(C)C#N)n1" : 4.52

activity change, negative = inhibition reported for this compound CC1(C)NC(=O)N(CC(O)COc2cc3ccccc3cc2C(=O)N2CCCCC2)C1=O (configuration not stated) : -6.63

activity change, negative = inhibition reported for this compound "CC(C)c1nc(NCCN2CCOCC2)c(C#N)c2c1COC(C)(C)C2" : -27

activity change, negative = inhibition reported for this compound "CCOC(=O)C1CCN(C(C)=C2C(=O)c3ccccc3C2=O)CC1" : 2.67

activity change, negative = inhibition reported for this compound CCCCOc1ccc(C2CC(=O)N(C)C2=O)cc1 (configuration not stated) : -14.6

activity change, negative = inhibition reported for this compound CC(C)C1=C2OC(N)=C(C#N)C(C#N)=C2C(C)CC1 (configuration not stated) : -2.44

activity change, negative = inhibition reported for this compound "Cc1cc(=O)n(CCC(=O)O)c2ccccc12" : 4.89

activity change, negative = inhibition reported for this compound O=C(CC1SC2=NCCN2C1=O)Nc1ccccc1 (configuration not stated) : 4.21

activity change, negative = inhibition reported for this compound CCCOc1cccc(CN2CCCCC2c2cccnc2)c1 (configuration not stated) : 0.284

----------
- assay-name: qHTS assay for small molecule agonists of the antioxidant response element (ARE) signaling pathway (AID 651741); on activation: % of control where 0% means no effect
- condition-label: HepG2 ARE-bla reporter, beta-lactamase FRET ratio, 16 h; series mostly up to 96 µM
Inconclusive results are not listed. Activity calls are given as the source filed them. The call rests on the fitted dose curve; in most records, active means well fitted activation curve with a large enough effect in the signal ratio; inconclusive means small, poorly fitted or top-dose-only effect, or effect the other way, or a change in a side signal; inactive means flat fitted curve, though single readings scatter; the % refers to the signal ratio.
Respond with a class label; see active, inactive

// query Recorded test call requested for "O=c1oc2cc(O)ccc2c2oc3cc(O)ccc3c12"
// result active

// query Recorded test call requested for "O=C=Nc1ccc(Cc2ccc(N=C=O)cc2)cc1"
// result inactive

// query Recorded test call requested for CC1CCC(C(C)C)C(O)C1 (centres undefined)
// result inactive

// query Recorded test call requested for "CCCCCC/C(C=O)=C\c1ccccc1"
// result inactive

// query Recorded test call requested for O=C1OC(O)C(C(Cl)Cl)=C1Cl (centres undefined)
// result active

// query Recorded test call requested for "Nc1ccc2cc3ccccc3cc2c1"
// result active

// query Recorded test call requested for "C=CC(=O)OCCOCCOC(=O)C=C"
// result active

// query Recorded test call requested for CN1[C@H]2CC(OC(=O)[C@H](CO)c3ccccc3)C[C@H]1[C@H]1O[C@H]12 (some centres undefined)
// result inactive

// query Recorded test call requested for "CC1(C)CCC(C)(C)c2cc(C(=O)Nc3ccc(C(=O)O)cc3)ccc21"
// result active
